Assay summary: Plasma pharmacokinetics of SHR9146 in mice (LC-MS/MS, non-compartmental analysis)
Format: in vivo, ICR mice
Measurement parameters: male, ICR, mouse, plasma, po, 20 mg/kg, 20 mg/kg i.g. bid, 7 days (7th-day steady state); male mice; plasma; read-out: t1/2 (converted)

Compound	half-life
OCCn1cc(-c2ccc(N3CCC([C@H]4c5c(F)cccc5-c5cncn54)CC3)cc2)cn1 [SHR9146]	63.6 min

---

Assay summary: Tissue distribution of SHR9146 in mice after oral gavage of 40 mg/kg
Format: in vivo, ICR mice
Measurement parameters: male, ICR, mouse, small intestine, po, 40 mg/kg, male, 6 h, 40 mg/kg oral gavage, individual mice; read-out: SHR9146 concentration in Small intestine
Measure name: concentration at 6 h (ng/g)

Molecule	Measure name	Units	Reported measurement
OCCn1cc(-c2ccc(N3CCC([C@H]4c5c(F)cccc5-c5cncn54)CC3)cc2)cn1	concentration at 6 h	ng/g	117
